Where these numbers come from: the supplement of paper PMC9446081

test-target: DNA ligase (UniProt B1XA82)
Sequence (B1XA82 whole entry): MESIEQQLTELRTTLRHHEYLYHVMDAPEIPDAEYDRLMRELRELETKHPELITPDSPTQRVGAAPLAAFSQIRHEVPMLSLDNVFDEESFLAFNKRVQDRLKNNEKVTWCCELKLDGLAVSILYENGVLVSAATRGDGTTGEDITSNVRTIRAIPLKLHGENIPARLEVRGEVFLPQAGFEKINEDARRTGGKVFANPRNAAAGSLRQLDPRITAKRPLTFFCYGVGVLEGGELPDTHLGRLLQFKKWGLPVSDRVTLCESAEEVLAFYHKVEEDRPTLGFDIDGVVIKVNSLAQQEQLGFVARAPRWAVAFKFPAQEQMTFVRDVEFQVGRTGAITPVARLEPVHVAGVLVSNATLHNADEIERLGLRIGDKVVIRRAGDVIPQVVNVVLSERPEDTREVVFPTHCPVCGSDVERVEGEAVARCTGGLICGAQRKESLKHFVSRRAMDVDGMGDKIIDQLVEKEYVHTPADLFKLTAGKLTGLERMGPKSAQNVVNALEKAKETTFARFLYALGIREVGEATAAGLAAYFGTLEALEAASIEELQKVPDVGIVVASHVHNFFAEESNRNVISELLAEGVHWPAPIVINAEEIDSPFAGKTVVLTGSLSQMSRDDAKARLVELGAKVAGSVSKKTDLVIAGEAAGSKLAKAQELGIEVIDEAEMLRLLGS
experimental-details: relative enzymatic activity vs untreated control (fraction); higher = less inhibition
experimental-setup: 100 µM; incubation time: 2 h at 37 C
endpoint-label: relative enzymatic activity
Answer using only a numeral; do not append any unit.

For orientation, consider the following solved cases.
compound	relative enzymatic activity
NC[C@H]1OB(O)c2c(OCCCO)cccc21	0.887
COC1(NC(=O)C(C(=O)[O-])c2ccc(O)cc2)C(=O)N2C(C(=O)[O-])=C(CSc3nnnn3C)COC21.[Na+].[Na+] (configuration not stated)	1.25
CC(C)CCCC(=O)N[C@@H](CCNCS(=O)(=O)O)C(=O)N[C@H](C(=O)N[C@@H](CCNCS(=O)(=O)O)C(=O)N[C@H]1CCNC(=O)[C@H]([C@@H](C)O)NC(=O)[C@H](CCNCS(=O)(=O)O)NC(=O)[C@H](CCNCS(=O)(=O)O)NC(=O)[C@H](CC(C)C)NC(=O)[C@H](CC(C)C)NC(=O)[C@H](CCNCS(=O)(=O)O)NC1=O)[C@@H](C)O	1.01
CN[C@@H]1[C@H](O[C@H]2[C@H](O[C@@H]3[C@@H](O)[C@H](O)[C@@H](NC(=N)N)[C@H](O)[C@H]3NC(=N)N)O[C@@H](C)[C@]2(O)CO)O[C@@H](CO)[C@H](O)[C@H]1O.CN[C@@H]1[C@H](O[C@H]2[C@H](O[C@@H]3[C@@H](O)[C@H](O)[C@@H](NC(=N)N)[C@H](O)[C@H]3NC(=N)N)O[C@@H](C)[C@]2(O)CO)O[C@@H](CO)[C@H](O)[C@H]1O	1.09

Could you now consider this next compound?
GET /values?readout=relative enzymatic activity&item= N[C@@H]1[C@H]2CN(c3nc4c(cc3F)c(=O)c(C(=O)O)cn4-c3ccc(F)cc3F)C[C@@H]12
1.04
